Here the recorded IC50 is given for each entry.
targetSystem: CDK2 enzyme, complexed with cyclin A (Homo sapiens)
assayMethodText: CDK2 cyclin dependent kinase assay, phosphorylation of synthetic peptide […] (33P-ATP filtration)
Type: biochemical
measurementConditions: Table 1; 0.1 mM ATP

| molecule | censoringQualifier | IC50 [µM] |
| --- | --- | --- |
| CCOc1cc(Nc2ccc(S(N)(=O)=O)cc2)n2ncnc2n1 | = | 13 |
| CN(C)S(=O)(=O)c1ccc(Nc2cc(Cl)nc3ncnn23)cc1 | = | 48.2 |
| CC(C)C(CO)Nc1cc(Nc2ccc(S(N)(=O)=O)cc2)n2ncnc2n1 (stereo not shown) | = | 4.91 |
| NS(=O)(=O)c1ccc(CNc2cc(Cl)nc3ncnn23)cc1 | = | 15 |
| O=S(=O)(c1ccc(Nc2cc(Cl)nc3ncnn23)cc1)N1CCOCC1 | = | 16.7 |
| CN(C)c1ccc(Nc2cc(Cl)nc3ncnn23)cc1 | = | 59 |
| NS(=O)(=O)c1ccc(Nc2cc(N3CCC(O)CC3)nc3ncnn23)cc1 | = | 0.99 |
| CCN(CC)CCNC(=O)c1ccc(Nc2cc(Cl)nc3ncnn23)cc1 | = | 42.8 |
| NS(=O)(=O)c1ccc(Nc2cc(NC(CCO)c3ccccc3)nc3ncnn23)cc1 (stereo not shown) | = | 5.74 |
| NS(=O)(=O)c1ccc(Nc2cc(-c3cccc(C(=O)O)c3)nc3ncnn23)cc1 | = | 14.3 |
| NS(=O)(=O)c1ccc(Nc2cc(NC3CCCC3)nc3ncnn23)cc1 | = | 0.55 |
| NS(=O)(=O)c1ccc(Nc2cc(N3CCCC3)nc3ncnn23)cc1 | = | 3.33 |
| O[C@H]1CC[C@H](Nc2cc(Cl)nc3ncnn23)CC1 | > | 200 |
| Clc1cc(Nc2ccc3cn[nH]c3c2)n2ncnc2n1 | = | 13.5 |
| CCOC(=O)c1ccc(Nc2cc(-c3cccc(O)c3)nc3ncnn23)cc1 | = | 31.9 |
| CC(C)Nc1cc(Nc2ccc(S(N)(=O)=O)cc2)n2ncnc2n1 | = | 0.89 |
| NC(=O)c1cccc(Nc2cc(Cl)nc3ncnn23)c1 | = | 36.7 |
| NC(=O)c1ccc(Nc2cc(-c3cccc(F)c3)nc3ncnn23)cc1 | = | 12.3 |
| COc1ccc(Nc2cc(-c3cccc(Cl)c3)nc3ncnn23)cn1 | = | 8.29 |
